Source: ChEMBL document CHEMBL2169869

Target: Diacylglycerol lipase-alpha (Homo sapiens) (UniProt Q9Y4D2)
Sequence (Q9Y4D2 whole entry): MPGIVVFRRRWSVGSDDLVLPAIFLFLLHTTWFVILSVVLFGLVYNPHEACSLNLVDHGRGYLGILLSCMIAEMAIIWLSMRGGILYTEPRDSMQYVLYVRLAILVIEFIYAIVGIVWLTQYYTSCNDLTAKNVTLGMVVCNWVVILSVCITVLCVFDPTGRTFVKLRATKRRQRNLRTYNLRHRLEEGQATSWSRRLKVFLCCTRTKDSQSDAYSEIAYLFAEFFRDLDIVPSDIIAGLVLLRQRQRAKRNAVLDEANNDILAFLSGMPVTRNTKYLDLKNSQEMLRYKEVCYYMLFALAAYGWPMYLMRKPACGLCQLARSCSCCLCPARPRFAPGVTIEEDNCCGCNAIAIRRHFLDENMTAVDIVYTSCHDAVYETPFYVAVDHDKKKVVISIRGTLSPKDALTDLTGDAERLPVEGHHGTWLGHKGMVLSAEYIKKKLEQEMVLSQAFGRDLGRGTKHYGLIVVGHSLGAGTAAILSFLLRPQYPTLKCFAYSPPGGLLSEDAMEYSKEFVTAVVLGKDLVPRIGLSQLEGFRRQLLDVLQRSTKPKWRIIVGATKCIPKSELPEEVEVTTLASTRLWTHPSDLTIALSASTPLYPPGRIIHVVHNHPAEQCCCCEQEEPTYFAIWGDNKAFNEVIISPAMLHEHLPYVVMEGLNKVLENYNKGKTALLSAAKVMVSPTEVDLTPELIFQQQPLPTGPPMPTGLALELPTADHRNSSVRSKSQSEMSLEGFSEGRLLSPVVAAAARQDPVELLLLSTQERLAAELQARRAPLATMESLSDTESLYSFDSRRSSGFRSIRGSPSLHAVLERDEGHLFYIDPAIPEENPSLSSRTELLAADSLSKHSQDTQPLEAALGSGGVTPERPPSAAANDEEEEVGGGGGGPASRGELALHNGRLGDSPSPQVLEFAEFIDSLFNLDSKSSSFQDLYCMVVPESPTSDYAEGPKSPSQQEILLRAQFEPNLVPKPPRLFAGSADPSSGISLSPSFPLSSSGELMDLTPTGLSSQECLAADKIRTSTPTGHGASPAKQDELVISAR
Assay: Inhibition of human DAGLalpha expressed in HEK293T cell membrane using [14C]SAG substrate at 10 uM in presence of 0.015% Triton X-100 by scintillation counting based radio-TLC assay
Type: cell membranes
Settings: HEK-293T
The following compounds are listed with their measured inhibition values.
Attribute measured: inhibition (%)

compound="CCCCCCCCCCCCCC1CC(=O)O1 (racemic)" value_observed=45
compound="CCCCCCC[C@H]1OC(=O)[C@H]1CCCCCC (racemic)" value_observed=25
compound=O=C(Oc1ccc([N+](=O)[O-])cc1)N1CCC(C(O)(c2ccc3c(c2)OCO3)c2ccc3c(c2)OCO3)CC1 value_observed=37
compound="CCCCCCC[C@@H]1OC(=O)[C@H]1CCCCCC (racemic)" value_observed=37

----------
Molecular target: Diacylglycerol lipase-alpha (Mus musculus)
Experiment: Inhibition of mouse DAGLalpha expressed in HEK293T cell membrane using [14C]SAG substrate at 1000 nM by scintillation counting based radio-TLC assay
Assay type: cell membranes
Conditions: HEK-293T
The following compounds are listed with their measured inhibition values.
Attribute measured: inhibition (%)

smiles_structure=CCCCCCCCCCC[C@@H](C[C@@H]1OC(=O)[C@H]1CCCCCC)OC(=O)[C@H](NC=O)[C@H](C)CC target="Diacylglycerol lipase-alpha (Mus musculus)" value_observed=69
smiles_structure=CCCCCCCCCCC[C@@H](C[C@@H]1OC(=O)[C@H]1CCCCCC)OC(=O)[C@H](CC)NC=O target="Diacylglycerol lipase-alpha (Mus musculus)" value_observed=96
smiles_structure=CCCCCCCCCCC[C@@H](C[C@@H]1OC(=O)[C@H]1CCCCCC)OC(=O)[C@@H](NC=O)[C@H](C)CC target="Diacylglycerol lipase-alpha (Mus musculus)" value_observed=88
smiles_structure=CCCCCCCCCCC[C@@H](C[C@@H]1OC(=O)[C@H]1CCCCCC)OC(=O)[C@@H](NC=O)[C@@H](C)CC target="Diacylglycerol lipase-alpha (Mus musculus)" value_observed=96
smiles_structure=CCCCCCCCCCC[C@@H](C[C@@H]1OC(=O)[C@H]1CCCCCC)OC(=O)[C@H](NC=O)[C@@H](C)CC target="Diacylglycerol lipase-alpha (Mus musculus)" value_observed=75

----------
Molecular target: Diacylglycerol lipase-alpha (Mus musculus)
Assay: Inhibition of mouse DAGLalpha expressed in HEK293T cell membrane using [14C]SAG substrate at 10000 nM by scintillation counting based radio-TLC assay
Assay type: cell membranes
Settings: HEK-293T
The following compounds are listed with their measured inhibition values.
Attribute measured: inhibition (%)

smiles_structure=CCCCCCCCCCC[C@@H](C[C@@H]1OC(=O)[C@H]1CCCCCC)OC(=O)[C@@H](NC=O)[C@H](C)CC attribute_measured=inhibition value_observed=100
smiles_structure=O=C(Oc1ccc([N+](=O)[O-])cc1)N1CCN(Cc2cccc(Oc3ccccc3)c2)CC1 attribute_measured=inhibition value_observed=10
smiles_structure=CCCCCCCCCCC[C@@H](C[C@@H]1OC(=O)[C@H]1CCCCCC)OC(=O)[C@H](NC=O)[C@H](C)CC attribute_measured=inhibition value_observed=85
smiles_structure=CCCCCCCCCCC[C@@H](C[C@@H]1OC(=O)[C@H]1CCCCCC)OC(=O)[C@H](NC=O)[C@@H](C)CC attribute_measured=inhibition value_observed=90

----------
Organism: Sus scrofa
Experiment: Inhibition of porcine pancreatic lipase type 2 at 10 uM by FRET assay
Attribute measured: inhibition (%)

compound=CCCCCCCCCCC[C@@H](C[C@@H]1OC(=O)[C@H]1CCCCCC)OC(=O)[C@@H](NC=O)[C@H](C)CC value_observed=98
compound="CCCCCCC[C@H]1OC(=O)[C@H]1CCCCCC (racemic)" value_observed=94
compound="CCCCCCC[C@@H]1OC(=O)[C@H]1CCCCCC (racemic)" value_observed=96
compound=CCCCCCCCCCC[C@@H](C[C@@H]1OC(=O)[C@H]1CCCCCC)OC(=O)[C@@H](NC=O)[C@@H](C)CC value_observed=99
compound=NC(=O)c1cccc(-c2cccc(OC(=O)NC3CCCCC3)c2)c1 value_observed=68

----------
Molecular target: Diacylglycerol lipase-alpha (Mus musculus)
Sequence (whole entry): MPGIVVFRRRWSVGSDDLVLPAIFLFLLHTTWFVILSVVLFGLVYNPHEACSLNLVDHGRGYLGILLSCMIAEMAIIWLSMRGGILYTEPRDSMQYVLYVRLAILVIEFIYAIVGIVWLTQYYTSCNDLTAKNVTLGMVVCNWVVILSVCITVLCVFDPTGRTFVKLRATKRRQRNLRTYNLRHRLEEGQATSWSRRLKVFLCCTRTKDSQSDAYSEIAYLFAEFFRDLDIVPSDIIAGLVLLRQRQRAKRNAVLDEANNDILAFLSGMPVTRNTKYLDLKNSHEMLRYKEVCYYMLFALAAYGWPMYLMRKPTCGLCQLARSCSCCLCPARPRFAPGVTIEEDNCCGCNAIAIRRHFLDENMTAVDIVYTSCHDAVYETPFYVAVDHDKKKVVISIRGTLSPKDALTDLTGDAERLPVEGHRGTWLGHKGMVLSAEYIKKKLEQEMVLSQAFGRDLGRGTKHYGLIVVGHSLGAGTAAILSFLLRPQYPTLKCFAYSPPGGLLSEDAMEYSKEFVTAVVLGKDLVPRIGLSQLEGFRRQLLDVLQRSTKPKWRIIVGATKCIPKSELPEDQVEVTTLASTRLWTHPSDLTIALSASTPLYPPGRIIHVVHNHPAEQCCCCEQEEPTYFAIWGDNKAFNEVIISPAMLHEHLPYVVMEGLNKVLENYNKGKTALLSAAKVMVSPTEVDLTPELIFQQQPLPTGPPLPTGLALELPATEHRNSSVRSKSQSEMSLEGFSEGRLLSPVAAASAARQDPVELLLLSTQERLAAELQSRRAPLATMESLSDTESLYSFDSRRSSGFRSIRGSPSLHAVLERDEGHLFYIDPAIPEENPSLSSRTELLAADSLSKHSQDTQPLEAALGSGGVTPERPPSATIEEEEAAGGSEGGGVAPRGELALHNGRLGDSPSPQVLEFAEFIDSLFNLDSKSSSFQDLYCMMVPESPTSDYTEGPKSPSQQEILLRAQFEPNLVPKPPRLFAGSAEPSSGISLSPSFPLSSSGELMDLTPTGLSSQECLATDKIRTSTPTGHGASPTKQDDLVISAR
Experiment: Inhibition of mouse DAGLalpha expressed in HEK293T cell membrane using [14C]SAG substrate at 10000 nM by scintillation counting based radio-TLC assay
Type: cell membranes
Conditions: HEK-293T
The following compounds are listed with their measured inhibition values.
Attribute measured: inhibition (%)

compound=O=C(Oc1ccc([N+](=O)[O-])cc1)N1CCC(C(O)(c2ccc3c(c2)OCO3)c2ccc3c(c2)OCO3)CC1 attribute_measured=inhibition sign== value_observed=3
compound=NC(=O)c1cccc(-c2cccc(OC(=O)NC3CCCCC3)c2)c1 attribute_measured=inhibition sign=< value_observed=0
compound="CCCCCCCCCCCCCC1CC(=O)O1 (racemic)" attribute_measured=inhibition sign=< value_observed=0
compound=CCCCCCCCCCC[C@@H](C[C@@H]1OC(=O)[C@H]1CCCCCC)OC(=O)[C@H](CC)NC=O attribute_measured=inhibition sign== value_observed=100
compound=CCCCCCCCCCC[C@@H](C[C@@H]1OC(=O)[C@H]1CCCCCC)OC(=O)[C@@H](NC=O)[C@@H](C)CC attribute_measured=inhibition sign== value_observed=96

----------
The following molecules are listed with their measured inhibition values.
Target: Diacylglycerol lipase-alpha (Mus musculus) (UniProt Q6WQJ1)
Assay: Inhibition of mouse DAGLalpha expressed in HEK293T cell membrane using [14C]SAG substrate at 100 nM by scintillation counting based radio-TLC assay
Format: cell membranes
Settings: HEK-293T
Attribute measured: inhibition (%)

molecule=CCCCCCCCCCC[C@@H](C[C@@H]1OC(=O)[C@H]1CCCCCC)OC(=O)[C@@H](NC=O)[C@@H](C)CC value_observed=80
molecule=CCCCCCCCCCC[C@@H](C[C@@H]1OC(=O)[C@H]1CCCCCC)OC(=O)[C@H](CC)NC=O value_observed=68
molecule=CCCCCCCCCCC[C@@H](C[C@@H]1OC(=O)[C@H]1CCCCCC)OC(=O)[C@H](NC=O)[C@H](C)CC value_observed=29
molecule="CCCCCCCCCCC[C@@H](C[C@@H]1OC(=O)[C@H]1CCCCCC)OC(=O)[C@H](CC(C)C)NC=O [ORLISTAT]" value_observed=72
molecule=CCCCCCCCCCC[C@@H](C[C@@H]1OC(=O)[C@H]1CCCCCC)OC(=O)[C@@H](NC=O)[C@H](C)CC value_observed=61
molecule=CCCCCCCCCCC[C@@H](C[C@@H]1OC(=O)[C@H]1CCCCCC)OC(=O)[C@H](NC=O)[C@@H](C)CC value_observed=51

----------
Molecular target: Diacylglycerol lipase-alpha (Homo sapiens)
Experiment: Inhibition of human DAGLalpha expressed in HEK293T cell membrane using [14C]SAG substrate at 10 uM in detergent free solution by […]
Assay type: cell-based
Details: HEK-293T
The following compounds are listed with their measured inhibition values.
Attribute measured: inhibition (%)

compound="CCCCCCCCCCCCCC1CC(=O)O1 (racemic)" attribute_measured=inhibition value_observed=14
compound=O=C(Oc1ccc([N+](=O)[O-])cc1)N1CCC(C(O)(c2ccc3c(c2)OCO3)c2ccc3c(c2)OCO3)CC1 attribute_measured=inhibition value_observed=59
compound=CCCCCCCCCCC[C@@H](C[C@@H]1OC(=O)[C@H]1CCCCCC)OC(=O)[C@@H](NC=O)[C@@H](C)CC attribute_measured=inhibition value_observed=92
compound=CCCCCCCCCCC[C@@H](C[C@@H]1OC(=O)[C@H]1CCCCCC)OC(=O)[C@H](NC=O)[C@H](C)CC attribute_measured=inhibition value_observed=90
compound=NC(=O)c1cccc(-c2cccc(OC(=O)NC3CCCCC3)c2)c1 attribute_measured=inhibition value_observed=22
compound=O=C(N[C@H]1COC1=O)OCc1ccccc1 attribute_measured=inhibition value_observed=17
compound=O=C(NCCCCCCNC(=O)ON=C1CCCCC1)ON=C1CCCCC1 attribute_measured=inhibition value_observed=70
compound=CCCCCCCCCCC[C@@H](C[C@@H]1OC(=O)[C@H]1CCCCCC)OC(=O)[C@H](CC)NC=O attribute_measured=inhibition value_observed=93
compound=O=C(Oc1ccc([N+](=O)[O-])cc1)N1CCN(Cc2cccc(Oc3ccccc3)c2)CC1 attribute_measured=inhibition value_observed=84
compound=CCCCCCCCCCC[C@@H](C[C@@H]1OC(=O)[C@H]1CCCCCC)OC(=O)[C@H](NC=O)[C@@H](C)CC attribute_measured=inhibition value_observed=90
compound=CCCCCCCCCCC[C@@H](C[C@@H]1OC(=O)[C@H]1CCCCCC)OC(=O)[C@@H](NC=O)[C@H](C)CC attribute_measured=inhibition value_observed=92
